# targetUnderTest: RALDH2 (Homo sapiens, UniProt O94788)
# Sequence (O94788 whole entry, species assumed): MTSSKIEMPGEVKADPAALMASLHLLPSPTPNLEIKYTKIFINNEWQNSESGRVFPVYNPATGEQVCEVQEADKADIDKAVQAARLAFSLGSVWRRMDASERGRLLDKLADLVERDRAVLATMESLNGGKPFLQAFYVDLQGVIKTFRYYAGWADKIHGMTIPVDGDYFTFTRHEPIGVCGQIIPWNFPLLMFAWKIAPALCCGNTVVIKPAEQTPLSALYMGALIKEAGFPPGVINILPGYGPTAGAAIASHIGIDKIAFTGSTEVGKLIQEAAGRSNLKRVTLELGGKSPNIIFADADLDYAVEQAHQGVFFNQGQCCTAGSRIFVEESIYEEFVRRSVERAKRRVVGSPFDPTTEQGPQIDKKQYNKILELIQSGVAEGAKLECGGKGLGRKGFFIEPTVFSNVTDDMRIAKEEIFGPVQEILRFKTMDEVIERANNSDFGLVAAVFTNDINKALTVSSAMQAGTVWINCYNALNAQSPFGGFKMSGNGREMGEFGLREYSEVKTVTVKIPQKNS
readoutType: IC50 (nM)
Numeric answer only, unit nM assumed.

Qu. Name the recorded IC50 of the item CC1=C(/C=C/C(C)=C/C=C/C(C)=C/C(=O)C(Cl)Cl)C(C)(C)CCC1 [DAR] in your answer.
Ans. 52.2

Data provenance: patent US10519108B2
